Listed here are binders together with their documented fluorescence of ACE2 protein.
Molecular target: T1, RBD derived from SARS-CoV-2 (Wuhan strain) (SARS-CoV-2 (Wuhan strain), UniProt P0DTC2 319-541)
T1 construct: domain: RBD
Assay: RBD beads, antibody 1 µg/mL, then labelled ACE2, flow cytometry

Binder	Recorded value
Ab336 (antibody, V domains shown) VH: QVQLQQSGPGLVKPSETLSLTCTVSGGSISSYYWTWIRQPPGKGLEWIAYISYSGSTNYNPSLRSRVTISVDTSKNQFSLKLSSVTAADTAVYYCARDYYYDNSGYPDSYYGMDVWGQGTTVTVSS VL: DIQLTQSPSTLSASVGDRVTITCRASQRISSWLAWYQQKPGKAPKLLIYKASTLQSGVPSRFSGSGSGTEFTLTISSLQPDDFATYYCQQYNSFSWTFGQGTKVEIK	402
Ab445 (antibody, V domains shown) VH: EVQLVESGGGVVQPGTSPRLSCAASGFTFSNSGMHWVRQAPGKGLEWVAVIWYDGSKKYYVDSVKGRFTISRDNSKNTLYLQMNSLRAEDTAVYYCARDGTVAVRGVMNPFFDYWGQGTLVTVSS VL: DIQLTQSPSSLSASVGDRVTITCQASQDISNYLNWYQQIPGKAPKLLIYDASNLETGVPSRFSGSGSGTDFTFTISSLQPEDIATYYCQQYDNLPYTFGQGTKLEIK	326

Continue with the next binder.
Reported fluorescence of ACE2 protein for Ab287 (antibody, V domains shown) VH: QVQLVQSGAEVKKPGSSVKVSCKASGDTFSSYAISWVRQAPGQGLEWMGRIILIFGVANYAQKFQGRVTITADKSTSTAYMELSSLRSEDTAVYYCARGGFYYDSSGYHLDYWGQGTLVTVSS VL: EIVLTQSPGTLSLSPGERATLSCRPSQSVSSSYLAWYQQRPGQAPRLLIYGASSRATGIPDRFSGSGSGTDFTLTISRLEPEDFAVYYCHQYGSSPRTFGQGTKVEIK was 105
